tested on: Candida albicans; assay: Drug uptake in Candida albicans ATCC 14053 at 10 uM incubated at 37 degree for 15 mins by UV-vis absorption spectra analysis relative to control; type: ADME, organism-based; conditions: 0.25 h

# CHEM_SMILES, UNIT_SPEC, Drug uptake
records = [
    ("CCCCCCC[n+]1cccc(C2=C3C(C)=C(I)C(C)=[N+]3[B-](F)(F)n3c(C)c(I)c(C)c32)c1.[I-]", "%", 27),
    ("CC1=C(I)C(C)=[N+]2C1=C(c1cccc[n+]1C)c1c(C)c(I)c(C)n1[B-]2(F)F.[I-]", "%", 4),
    ("CC1=C(I)C(C)=[N+]2C1=C(c1cc[n+](C)cc1)c1c(C)c(I)c(C)n1[B-]2(F)F.[I-]", "%", 23),
    ("CC1=C(I)C(C)=[N+]2C1=C(c1ccc[n+](C)c1)c1c(C)c(I)c(C)n1[B-]2(F)F.[I-]", "%", 9),
    ("CC1=C(I)C(C)=[N+]2C1=C(c1ccc[n+](Cc3ccccc3)c1)c1c(C)c(I)c(C)n1[B-]2(F)F.[Br-]", "%", 25),
]

* * *

system: Candida albicans; experiment: Photodynamic antimicrobial activity against Candida albicans ATCC14053 assessed as loss of microbial viability at 2 uM preincubated for 15 mins followed by light irradiation at 81 J/cm^2 dose for 15 mins and measured after 36 hrs; type: functional; conditions: time 36.5 hrs
Active and inactive are the calls of the source. The calls are words filed in the database; no cut-off is given here.
READOUT: Activity

# CHEM_SMILES, SUBJECT_OF_TEST, READOUT, VALUE_MEASURED
data = [
    ("CC1=C(I)C(C)=[N+]2C1=C(c1cccc[n+]1C)c1c(C)c(I)c(C)n1[B-]2(F)F.[I-]", "Candida albicans", "Activity", "77%"),
    ("CC1=C(I)C(C)=[N+]2C1=C(c1cc[n+](C)cc1)c1c(C)c(I)c(C)n1[B-]2(F)F.[I-]", "Candida albicans", "Activity", "77%"),
    ("CC1=C(I)C(C)=[N+]2C1=C(c1ccc[n+](Cc3ccccc3)c1)c1c(C)c(I)c(C)n1[B-]2(F)F.[Br-]", "Candida albicans", "Activity", "Active"),
    ("CCCCCCC[n+]1cccc(C2=C3C(C)=C(I)C(C)=[N+]3[B-](F)(F)n3c(C)c(I)c(C)c32)c1.[I-]", "Candida albicans", "Activity", "Active"),
    ("CC1=C(I)C(C)=[N+]2C1=C(c1ccc[n+](C)c1)c1c(C)c(I)c(C)n1[B-]2(F)F.[I-]", "Candida albicans", "Activity", ">99.9%"),
]

* * *

assay: Drug uptake in Escherichia coli ATCC 25922 at 10 uM incubated at 37 degree for 15 mins by UV-vis absorption spectra analysis relative to control; type: ADME; details: 0.25 h

# CHEM_SMILES, Drug uptake (%)
records = [
    ("CCCCCCC[n+]1cccc(C2=C3C(C)=C(I)C(C)=[N+]3[B-](F)(F)n3c(C)c(I)c(C)c32)c1.[I-]", 61),
    ("CC1=C(I)C(C)=[N+]2C1=C(c1cc[n+](C)cc1)c1c(C)c(I)c(C)n1[B-]2(F)F.[I-]", 53),
    ("CC1=C(I)C(C)=[N+]2C1=C(c1cccc[n+]1C)c1c(C)c(I)c(C)n1[B-]2(F)F.[I-]", 10),
    ("CC1=C(I)C(C)=[N+]2C1=C(c1ccc[n+](C)c1)c1c(C)c(I)c(C)n1[B-]2(F)F.[I-]", 47),
    ("CC1=C(I)C(C)=[N+]2C1=C(c1ccc[n+](Cc3ccccc3)c1)c1c(C)c(I)c(C)n1[B-]2(F)F.[Br-]", 68),
]

* * *

system: Staphylococcus aureus; experiment: Photodynamic antimicrobial activity against methicillin resistant Staphylococcus aureus ATCC43300 preincubated for 15 mins followed by irradiation with 90 mW/cm^2 light for 15 mins and measured after 24 hrs; type: functional; conditions: ATCC43300, light or radiation study, time 24.5 hrs
READOUT: MIC

# CHEM_SMILES, READOUT, VALUE_MEASURED
rows = [
    ("CC1=C(I)C(C)=[N+]2C1=C(c1cccc[n+]1C)c1c(C)c(I)c(C)n1[B-]2(F)F.[I-]", "MIC", "1.25 µM"),
    ("CC1=C(I)C(C)=[N+]2C1=C(c1cc[n+](C)cc1)c1c(C)c(I)c(C)n1[B-]2(F)F.[I-]", "MIC", "1.25 µM"),
    ("CCCCCCC[n+]1cccc(C2=C3C(C)=C(I)C(C)=[N+]3[B-](F)(F)n3c(C)c(I)c(C)c32)c1.[I-]", "MIC", "0.63 µM"),
    ("CC1=C(I)C(C)=[N+]2C1=C(c1ccc[n+](Cc3ccccc3)c1)c1c(C)c(I)c(C)n1[B-]2(F)F.[Br-]", "MIC", "0.63 µM"),
    ("CC1=C(I)C(C)=[N+]2C1=C(c1ccc[n+](C)c1)c1c(C)c(I)c(C)n1[B-]2(F)F.[I-]", "MIC", "0.63 µM"),
]

* * *

experiment: Octanol-water partition coefficient, logP of the compound at 2 uM after 20 hrs by HPLC analysis; type: physicochemical
READOUT: logP at 20 h, 2 µM

# CHEM_SMILES, VALUE_MEASURED
records = [
    ("CCCCCCC[n+]1cccc(C2=C3C(C)=C(I)C(C)=[N+]3[B-](F)(F)n3c(C)c(I)c(C)c32)c1.[I-]", "> 4"),
    ("CC1=C(I)C(C)=[N+]2C1=C(c1ccccn1)c1c(C)c(I)c(C)n1[B-]2(F)F", "> 4"),
    ("CC1=C(I)C(C)=[N+]2C1=C(c1cc[n+](C)cc1)c1c(C)c(I)c(C)n1[B-]2(F)F.[I-]", 2.14),
]

* * *

assay: Drug uptake in Staphylococcus aureus ATCC 29213 at 10 uM incubated at 37 degree for 15 mins by UV-vis absorption spectra analysis relative to control; type: ADME; conditions: 0.25 h
Kindly apply the following: true (1) if Drug uptake is less than 70%, false (0) in every other case.

# CHEM_SMILES, CATEGORY
rows = [
    ("CC1=C(I)C(C)=[N+]2C1=C(c1cc[n+](C)cc1)c1c(C)c(I)c(C)n1[B-]2(F)F.[I-]", "true (1)"),
    ("CC1=C(I)C(C)=[N+]2C1=C(c1ccc[n+](Cc3ccccc3)c1)c1c(C)c(I)c(C)n1[B-]2(F)F.[Br-]", "false (0)"),
    ("CC1=C(I)C(C)=[N+]2C1=C(c1cccc[n+]1C)c1c(C)c(I)c(C)n1[B-]2(F)F.[I-]", "true (1)"),
    ("CC1=C(I)C(C)=[N+]2C1=C(c1ccc[n+](C)c1)c1c(C)c(I)c(C)n1[B-]2(F)F.[I-]", "true (1)"),
]

* * *

assay: Octanol-water partition coefficient, logP of the compound at 2 uM after 20 hrs by HPLC analysis; assay type: physicochemical
READOUT: logP at 20 h, 2 µM

# CHEM_SMILES, READOUT, READOUT_RELATION, VALUE_MEASURED
data = [
    ("CC1=C(I)C(C)=[N+]2C1=C(c1cccnc1)c1c(C)c(I)c(C)n1[B-]2(F)F", "logP at 20 h, 2 µM", ">", 4),
    ("CC1=C(I)C(C)=[N+]2C1=C(c1ccncc1)c1c(C)c(I)c(C)n1[B-]2(F)F", "logP at 20 h, 2 µM", ">", 4),
    ("CC1=C(I)C(C)=[N+]2C1=C(c1ccc[n+](C)c1)c1c(C)c(I)c(C)n1[B-]2(F)F.[I-]", "logP at 20 h, 2 µM", "=", 1.44),
    ("CC1=C(I)C(C)=[N+]2C1=C(c1cccc[n+]1C)c1c(C)c(I)c(C)n1[B-]2(F)F.[I-]", "logP at 20 h, 2 µM", "=", 0.17),
    ("CC1=C(I)C(C)=[N+]2C1=C(c1ccc[n+](Cc3ccccc3)c1)c1c(C)c(I)c(C)n1[B-]2(F)F.[Br-]", "logP at 20 h, 2 µM", ">", 4),
]
